Source: the supplement of paper PMC5908809

system: normal primary NK cells, pool 1 (3 donors), resting (IL-2 0 ng/mL); assay: percent inhibition of viability; higher = more inhibition; settings: 72 h; 1000 nM;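 also: normalised to DMSO-only wells as negative and benzethonium chloride as positive control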
In this section we review reported percent inhibition of viability values for a set of molecules.
recordedMetric: percent inhibition of viability (%)

{"molecule": "COc1cc2c(NC3CCN(C(C)C)CC3)nc(N3CCC(F)(F)CC3)nc2cc1OCCCN1CCCC1 [UNC0642] (max concentration tested 10000 nM)", "recordedMetric": "percent inhibition of viability", "unitLabel": "%", "measuredValue": 28.9}
{"molecule": "FC(F)c1nc2ccccc2n1-c1nc(N2CCOCC2)nc(N2CCOCC2)n1 [ZSTK474] (max concentration tested 10000 nM)", "recordedMetric": "percent inhibition of viability", "unitLabel": "%", "measuredValue": 27.2}
{"molecule": "c1ccc2c(CCNc3ccc(Nc4ccncc4)cc3)c[nH]c2c1 [Serdemetan] (max concentration tested 10000 nM)", "recordedMetric": "percent inhibition of viability", "unitLabel": "%", "measuredValue": 78.3}
{"molecule": "C=CCc1cccc(/C=N/NC(=O)CN2CCN(Cc3ccccc3)CC2)c1O [PAC-1] (max concentration tested 10000 nM)", "recordedMetric": "percent inhibition of viability", "unitLabel": "%", "measuredValue": -2.95}
{"molecule": "Oc1ccc2c(c1)CC[C@H](c1ccccc1)[C@@H]2c1ccc(OCCN2CCCC2)cc1 [Lasofoxifene] (max concentration tested 1000 nM)", "recordedMetric": "percent inhibition of viability", "unitLabel": "%", "measuredValue": 6.03}
{"molecule": "CNC(=O)c1cc(COc2nnc(Nc3ccc(Cl)cc3)c3ccoc23)ccn1 [Telatinib] (max concentration tested 10000 nM)", "recordedMetric": "percent inhibition of viability", "unitLabel": "%", "measuredValue": -3.05}
